List of Ki values.
target: 5-hydroxytryptamine receptor 1A (Homo sapiens, UniProt P08908); experiment: Displacement of [3H]-8-OH-DPAT from human recombinant 5-HT1A receptor expressed in HEK293 cells incubated for 60 mins by microbeta2 scintillation counter
Sequence (P08908 whole entry): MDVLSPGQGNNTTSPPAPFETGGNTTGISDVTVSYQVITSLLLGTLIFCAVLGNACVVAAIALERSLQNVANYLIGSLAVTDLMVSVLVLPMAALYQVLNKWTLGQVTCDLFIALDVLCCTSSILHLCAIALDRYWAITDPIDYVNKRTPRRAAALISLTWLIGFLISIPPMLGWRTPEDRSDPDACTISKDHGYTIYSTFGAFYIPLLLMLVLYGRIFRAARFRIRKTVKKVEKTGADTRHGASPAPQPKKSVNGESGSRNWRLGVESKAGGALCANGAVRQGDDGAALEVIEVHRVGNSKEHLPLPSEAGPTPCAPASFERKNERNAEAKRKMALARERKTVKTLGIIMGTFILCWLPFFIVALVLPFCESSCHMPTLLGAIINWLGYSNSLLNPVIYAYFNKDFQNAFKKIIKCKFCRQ
readout: Ki (nM)

# compound.string, tested.target, readout, display.unit, readout.number
measured = [
    ("COc1ccc(/C=C2\\NC(=O)N(CCCCN3CCN(c4ncccn4)CC3)C2=O)cc1OC", "5-hydroxytryptamine receptor 1A (Homo sapiens, UniProt P08908)", "Ki", "nM", 45),
    ("COc1ccc(/C=C2\\NC(=O)N(CCCN3CCN(c4ncccn4)CC3)C2=O)cc1OC1CCCC1", "5-hydroxytryptamine receptor 1A (Homo sapiens, UniProt P08908)", "Ki", "nM", 85),
    ("COc1ccc(/C=C2\\NC(=O)N(CCCCN3CCN(c4ccccc4OC)CC3)C2=O)cc1OC1CCCC1", "5-hydroxytryptamine receptor 1A (Homo sapiens, UniProt P08908)", "Ki", "nM", 1),
]
